Recorded values, source the supplement of paper PMC10065799.

experimental_target: MERTK (UniProt Q12866)
Sequence (Q12866 whole entry, looked up): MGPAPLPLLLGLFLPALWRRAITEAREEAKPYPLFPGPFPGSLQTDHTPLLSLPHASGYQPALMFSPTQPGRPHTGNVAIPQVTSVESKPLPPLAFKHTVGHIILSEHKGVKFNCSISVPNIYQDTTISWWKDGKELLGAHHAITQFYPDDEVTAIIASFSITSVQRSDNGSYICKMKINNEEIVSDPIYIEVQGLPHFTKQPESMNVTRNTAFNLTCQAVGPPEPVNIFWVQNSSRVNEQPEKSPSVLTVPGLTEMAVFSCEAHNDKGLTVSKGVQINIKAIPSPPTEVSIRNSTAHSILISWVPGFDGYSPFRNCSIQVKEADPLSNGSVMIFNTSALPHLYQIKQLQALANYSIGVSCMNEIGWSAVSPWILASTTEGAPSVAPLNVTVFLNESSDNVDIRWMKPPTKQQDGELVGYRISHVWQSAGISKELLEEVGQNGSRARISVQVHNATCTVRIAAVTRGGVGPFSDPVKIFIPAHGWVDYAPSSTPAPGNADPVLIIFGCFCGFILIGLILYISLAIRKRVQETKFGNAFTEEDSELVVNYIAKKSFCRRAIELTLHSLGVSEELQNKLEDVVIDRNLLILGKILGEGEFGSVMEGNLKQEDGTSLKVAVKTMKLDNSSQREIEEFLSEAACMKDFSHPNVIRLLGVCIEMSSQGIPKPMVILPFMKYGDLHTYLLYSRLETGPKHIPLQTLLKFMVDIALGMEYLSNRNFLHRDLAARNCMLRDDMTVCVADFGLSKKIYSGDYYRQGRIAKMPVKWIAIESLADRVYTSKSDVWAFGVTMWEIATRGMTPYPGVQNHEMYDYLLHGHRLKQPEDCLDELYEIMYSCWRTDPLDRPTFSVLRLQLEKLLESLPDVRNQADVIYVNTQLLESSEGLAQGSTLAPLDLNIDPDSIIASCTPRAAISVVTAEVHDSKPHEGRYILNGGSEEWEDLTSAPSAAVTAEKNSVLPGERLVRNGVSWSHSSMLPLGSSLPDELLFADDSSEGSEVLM
assay_comment: phosphorylation enrichment, bacterial display (enrichment ratio); higher = better substrate or ligand; peptides without Tyr show the background;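 note: 11-residue human phosphosite peptides and single-mutation variants displayed on the E. coli surface, counted by deep sequencing, each peptide's frequency after selection divided by its frequency in the unselected input library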;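 note: frequency after pTyr selection over input frequency; kinase dosed for 20-30% of maximal phosphorylation in three min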
assay_readout: phosphorylation enrichment
Could you keep your reply to the number by itself?

{"sequence_data": "YRDALYKSMVD [PHEX_Y250_F252S]", "phosphorylation enrichment": 0.4}

Field phosphorylation enrichment (entry SVETPYGSVTF [NDRG2_Y47] ) reads 0.52

The recorded phosphorylation enrichment for ILGRYYETGSI [PAX2_Y73] is 0.707

Kindly note the recorded phosphorylation enrichment for GRLPEYNTRIA [CCDC151_Y542] , which is 0.45

Per the records, this sequence ( KIDAKYKKKIK [WDR19_Y1230_E1235K] ) has phosphorylation enrichment equal to 0.368

phosphorylation enrichment recorded for this sequence, DYYDLYGGEKK [PTPN11_Y66_F71K] , is 2.72

For this sequence ( PVRIAYGRPRG [SUGP2_Y985_D986G] ), measured phosphorylation enrichment is 0.606

// phosphorylation enrichment lookup, sequence = NREGVYTDFAP [TGFBI_Y537_V539D] , result: 1.71

Reported phosphorylation enrichment ( FKDGQYWIRGW [ACSF3_Y466_R471W] ) = 0.345

The reported phosphorylation enrichment of the sequence CEHFSYFGMKA [SLC15A2_Y60_R57H_YF] was 0.469

Reported phosphorylation enrichment for IFKAAYFGVFD [SLC25A4_Y191_R188K_YF] was 0.531

The recorded phosphorylation enrichment for KPVDTYYDSTR [DYNC2H1_Y2230_M2227V] is 0.397

AKKIKYFEGVS [PRKDC_Y682] has a reported phosphorylation enrichment of 0.383

Entry SSPMKYQQNVS [EGFEM1P_Y160] ; phosphorylation enrichment = 0.398

====

# Lookup of reported phosphorylation enrichment keyed by entry
Test system: c-Abl (mouse)
assay_comment: phosphorylation enrichment, bacterial display (enrichment ratio); higher = better substrate or ligand; peptides without Tyr show the background
Please give only the number in your answer, with no unit.

{"sequence_data": "KVALLYKPFFF [POLE_Y100_P99L_YF]", "reported": 0.921}
{"sequence_data": "MRALTYCDLHK [KCNH2_Y827_V822M]", "reported": 0.626}
{"sequence_data": "KEELAYLKKNH [KRT14_Y248]", "reported": 0.528}
{"sequence_data": "GNLLIYTDFGK [HGD_Y166_E168D]", "reported": 1.53}

Switching to the query record.
Notebook: MSIWPYLQKID [MFSD8_Y63] , phosphorylation enrichment read as 0.699

====

System: c-Abl (mouse)
assay_comment: phosphorylation enrichment, bacterial display (enrichment ratio); higher = better substrate or ligand; peptides without Tyr show the background
assay_readout: phosphorylation enrichment
Answer with the value's number alone.

Check out these entries, answers already filled in.
{"sequence_data": "QTLEAYIRCNK [SPAST_Y604_W607C]", "reported": 0.887}
{"sequence_data": "QFQLKYSETPF [SIX6OS1_Y129_YF]", "reported": 1.39}

phosphorylation enrichment recorded for this sequence, TYEYKYPEGSS [TGM4_Y440] , is 0.777

Input FITVGYVDDTQ [HLA-B_Y51_S48T] . Output phosphorylation enrichment: 0.898

Consider KRLFAYKMLMA [TMC2_Y209_Q205R_YF] . Its measured phosphorylation enrichment is 0.58

The recorded phosphorylation enrichment for entry WRPFGYPRCRR [BCS1L_Y181_R184C] equals 0.403

====

experimental_target: Fes (UniProt P07332)
Sequence (P07332 whole entry, looked up): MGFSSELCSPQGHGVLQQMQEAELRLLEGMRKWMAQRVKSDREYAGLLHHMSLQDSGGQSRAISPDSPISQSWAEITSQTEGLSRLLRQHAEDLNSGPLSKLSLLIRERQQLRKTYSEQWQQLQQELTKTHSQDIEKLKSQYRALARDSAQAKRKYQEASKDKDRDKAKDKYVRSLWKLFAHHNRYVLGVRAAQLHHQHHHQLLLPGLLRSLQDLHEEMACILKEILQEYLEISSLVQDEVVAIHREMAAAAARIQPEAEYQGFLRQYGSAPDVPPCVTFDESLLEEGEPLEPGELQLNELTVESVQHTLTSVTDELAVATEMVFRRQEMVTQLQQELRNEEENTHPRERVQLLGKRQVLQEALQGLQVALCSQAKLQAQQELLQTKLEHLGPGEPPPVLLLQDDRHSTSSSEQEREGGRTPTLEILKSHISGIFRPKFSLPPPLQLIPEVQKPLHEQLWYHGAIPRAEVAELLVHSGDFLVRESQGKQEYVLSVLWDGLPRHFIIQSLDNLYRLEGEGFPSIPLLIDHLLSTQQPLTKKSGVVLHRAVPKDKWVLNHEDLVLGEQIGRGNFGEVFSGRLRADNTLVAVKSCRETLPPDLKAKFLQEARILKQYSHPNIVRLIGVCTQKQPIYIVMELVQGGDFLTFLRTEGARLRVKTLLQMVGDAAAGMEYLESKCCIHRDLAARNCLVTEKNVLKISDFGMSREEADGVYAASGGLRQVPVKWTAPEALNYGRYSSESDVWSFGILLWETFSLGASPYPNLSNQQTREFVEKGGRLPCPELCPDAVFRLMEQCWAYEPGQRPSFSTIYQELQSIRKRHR
assay_comment: phosphorylation enrichment, bacterial display (enrichment ratio); higher = better substrate or ligand; peptides without Tyr show the background
Outcome label depends on phosphorylation enrichment relative to 1: at/above gives TRUE, below gives FALSE.

Examples from the recorded data:
{"sequence_data": "IGMSSYVMLAS [GGCX_Y301_F299S]", "discrete_label": "TRUE"}
{"sequence_data": "EKIANYKEGTY [CLRN1_Y171]", "discrete_label": "FALSE"}
{"sequence_data": "IVEFAYNDKAV [PUM3_Y259_I264V_YF]", "discrete_label": "FALSE"}
{"sequence_data": "DSNPIYSQIWS [FCRL3_Y662]", "discrete_label": "TRUE"}
{"sequence_data": "FRIGPYQPNVP [MATR3_Y784_YF]", "discrete_label": "FALSE"}
{"sequence_data": "GFKVRYATWSI [FGFR1_Y210_YF]", "discrete_label": "TRUE"}

Could you now consider this next sequence?
Evaluate MFNPFYGLFEF [NEDD4L_Y680_YF] : phosphorylation enrichment at minimum 1? TRUE

====

Tested on: AncSZ
assay_comment: phosphorylation enrichment, bacterial display (enrichment ratio); higher = better substrate or ligand; peptides without Tyr show the background
assay_readout: phosphorylation enrichment
A bare number is all that is needed in reply.

{"sequence_data": "SVTGTYSPALN [TP53_Y126_C124G]", "reported": 0.661}
{"sequence_data": "PHMQTYEVDHN [SDHB_Y61_L65H]", "reported": 1.31}
{"sequence_data": "QFQLKYSETPF [SIX6OS1_Y129_YF]", "reported": 1.7}
{"sequence_data": "ISDNAYQYMLT [MYH7_Y162]", "reported": 1.51}
{"sequence_data": "QNTGFYFDLFG [PTPN11_Y62_D61Y_YF]", "reported": 1.89}
{"sequence_data": "HSVVQYVGGVM [FGGY_Y136_L134V]", "reported": 0.989}
{"sequence_data": "STDDGYIDLQF [TMEM230_Y29]", "reported": 1.22}
{"sequence_data": "NDFGNYSNQSS [HNRNPA1_Y318_N319S]", "reported": 1.02}
{"sequence_data": "FPHVISARLWR [SMAD4_Y95_Y95S]", "reported": 1}
{"sequence_data": "PTTKTYLPHFD [HBA1_Y43_F44L]", "reported": 0.839}

Quick note, phosphorylation enrichment for PIAPVYAASMV [ACAT1_Y331] landed at 0.837

Recorded phosphorylation enrichment (sequence VGIMLYGVDSR [PKD1_Y3143] ): 1.12

Recorded phosphorylation enrichment (sequence GPQSLYNGLVA [UCP2_Y79_R76Q] ): 0.622

KNKLNYTLPQD [NRAP_Y523] has a reported phosphorylation enrichment of 0.584

====

experimental_target: Fes (UniProt P07332)
assay_comment: phosphorylation enrichment, bacterial display (enrichment ratio); higher = better substrate or ligand; peptides without Tyr show the background
Would you mind labelling by phosphorylation enrichment? At or over 0.8 is fulfilled, under is not fulfilled.

The following sequences have reported results that may help.
{"sequence_data": "CLAKMYYSAVD [CP_Y539]", "discrete_label": "fulfilled"}
{"sequence_data": "SLNAVYPKAGS [OAS3_Y376_R378K]", "discrete_label": "not fulfilled"}
{"sequence_data": "KWRGQYDVAIE [BTK_Y425_K430E]", "discrete_label": "not fulfilled"}
{"sequence_data": "LQTFHYHGHSM [PDHA1_Y289_R288H_YF]", "discrete_label": "not fulfilled"}
{"sequence_data": "IIWDSYTTNKM [GNB4_Y85]", "discrete_label": "fulfilled"}

Entry LWKWKYEELKE [CCDC102B_Y299] : is its phosphorylation enrichment no less than 0.8? fulfilled

Record PEPHIYAVADV [MYO9A_Y216_L211P] ; criterion: phosphorylation enrichment no lower than 0.8. Met? fulfilled

Answer whether phosphorylation enrichment of SNNFIYKTLGV [FAM83B_Y639_YF] is greater than or equal to 0.8. not fulfilled

====

sequences and their reported phosphorylation enrichment
experimental_target: FGFR1 (UniProt P11362)
Sequence (P11362 whole entry, looked up): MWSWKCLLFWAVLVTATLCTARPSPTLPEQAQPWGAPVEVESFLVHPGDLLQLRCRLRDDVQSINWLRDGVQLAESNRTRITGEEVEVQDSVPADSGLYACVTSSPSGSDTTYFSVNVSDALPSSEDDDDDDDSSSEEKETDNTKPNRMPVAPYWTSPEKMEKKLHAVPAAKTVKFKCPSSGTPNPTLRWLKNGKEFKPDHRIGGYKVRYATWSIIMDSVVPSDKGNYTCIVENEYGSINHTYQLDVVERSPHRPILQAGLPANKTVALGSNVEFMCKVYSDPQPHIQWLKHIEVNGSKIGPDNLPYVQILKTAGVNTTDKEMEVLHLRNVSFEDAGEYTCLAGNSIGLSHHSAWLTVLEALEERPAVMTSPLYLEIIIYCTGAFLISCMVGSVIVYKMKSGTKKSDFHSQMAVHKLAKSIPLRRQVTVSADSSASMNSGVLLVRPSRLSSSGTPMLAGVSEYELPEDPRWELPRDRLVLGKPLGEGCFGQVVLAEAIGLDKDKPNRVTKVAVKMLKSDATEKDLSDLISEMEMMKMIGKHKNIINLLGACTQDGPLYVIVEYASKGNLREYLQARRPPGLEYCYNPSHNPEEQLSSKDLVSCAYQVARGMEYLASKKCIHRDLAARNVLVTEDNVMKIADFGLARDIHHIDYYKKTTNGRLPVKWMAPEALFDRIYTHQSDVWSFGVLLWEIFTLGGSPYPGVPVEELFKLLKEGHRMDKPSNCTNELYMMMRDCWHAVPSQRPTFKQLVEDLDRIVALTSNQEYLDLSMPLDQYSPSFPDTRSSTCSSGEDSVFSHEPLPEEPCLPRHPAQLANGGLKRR
assay_comment: phosphorylation enrichment, bacterial display (enrichment ratio); higher = better substrate or ligand; peptides without Tyr show the background

Observe how each entry below is paired with its result.
{"sequence_data": "QFQLKYSETPF [SIX6OS1_Y129_YF]", "reported": 0.982}
{"sequence_data": "QDIMAYRSREV [BCL6_Y157_G159S]", "reported": 0.285}
{"sequence_data": "RQQQDYWLKDV [ANPEP_Y600_I603K]", "reported": 0.71}
{"sequence_data": "TRGLEYIVPLM [CLCN4_Y548_G544R]", "reported": 1.41}
{"sequence_data": "YDGKDYIALKE [HLA-A_Y147_N151K]", "reported": 0.702}

The recorded phosphorylation enrichment for entry ASLLPYFPAIM [IPO4_Y518] equals 0.537

Record HSFQCYGQNEA [ENTPD3_Y262_R264Q] , field phosphorylation enrichment: 0.604

====

Recorded phosphorylation enrichment for the following sequences
Tested on: Fer (mouse)
assay_comment: phosphorylation enrichment, bacterial display (enrichment ratio); higher = better substrate or ligand; peptides without Tyr show the background
When you answer, write just the number.

Previously resolved entries follow.
{"sequence_data": "DSLASYLDKVR [KRT10_Y160_R156S]", "reported": 0.416}
{"sequence_data": "PTTKTYFPHFH [HBA1_Y43_D48H]", "reported": 0.496}
{"sequence_data": "SSMIDYNLLEK [MYOC_Y479_P481L]", "reported": 0.417}
{"sequence_data": "RHRSGYVLIAM [EFR3A_Y73]", "reported": 1.1}
{"sequence_data": "LSVMSYDLGMF [GBA3_Y174]", "reported": 0.602}
{"sequence_data": "PSDSGYSYETI [MAP1B_Y1921]", "reported": 0.642}
{"sequence_data": "PSPTRYSLSPS [RANBP2_Y785]", "reported": 0.436}
{"sequence_data": "SGPRRYNIAAL [TTR_Y125_T126N]", "reported": 0.432}
{"sequence_data": "DAAEDYAEGVR [DHODH_Y194]", "reported": 0.629}
{"sequence_data": "LDAFIYDAALL [GRIN2A_Y730_V734L]", "reported": 14.9}

phosphorylation enrichment for GFKVRYATWSI [FGFR1_Y210_YF] is 0.512

For this sequence ( LSIQTYSALNF [DES_Y423_P419S] ), measured phosphorylation enrichment is 2.61

Record summary for RGYRVCYTPDS [PTPRF_Y450_Y450C] : reported phosphorylation enrichment = 0.71

The reported value for HYECKYVINAI [MAOA_Y268] in terms of phosphorylation enrichment is 0.506
